Each recorded value in this set is attributed to PubChem BioAssay AID1963985.

Test system: 252836-082-R-J2-PDC tumor spheroids, viability;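 further: spheroids exposed to agents for seven days before readout; percent of vehicle DMSO control viability so 100% = untreated growth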
Assay: Anticancer human tumor 252836-082-R-J2-PDC patient-derived head and neck squamous cell carcinoma cell line growth inhibition [PI3K]
Details: second compound 0.316 µM; first compound 10 µM; hits give low values; spheroids with HUVEC and MSC
MEASUREMENT LABEL: viability, T/C (%)

1) C=CC(=O)N1CCN(c2nc(=O)n(-c3c(C)ccnc3C(C)C)c3nc(-c4c(O)cccc4F)c(F)cc23)C(C)C1 (stereo not drawn) + Cc1nc(NC(=O)N2CCCC2C(N)=O)sc1-c1ccnc(C(C)(C)C(F)(F)F)c1 = 80.9
2) CC(C)NCC(C(=O)N1CCN(c2ncnc3c2C(C)CC3O)CC1)c1ccc(Cl)cc1 (stereo not drawn) + CC(Nc1ncnc2nc[nH]c12)c1cc2cccc(Cl)c2c(=O)n1-c1ccccc1 = 20.7
3) C#Cc1c(F)ccc2cc(O)cc(-c3ncc4c(N5CC6CCC(C5)N6)nc(OCC56CCCN5CC(F)C6)nc4c3F)c12 (stereo not drawn) + CC(Nc1ncnc2nc[nH]c12)c1cc2cccc(Cl)c2c(=O)n1-c1ccccc1 = 65.4
